# melting point values compiled below

Please review the entries below; each comes with its answer.
Compound	melting point
COc1cc(C(C)C(=O)NCC(COC(=O)C(C)(C)C)Cc2ccc(C)c(C)c2)ccc1NS(C)(=O)=O (stereo not given)	54 to 57 °C
O=C(O)CC1Cc2cccc3cccc1c23 (stereo not given)	123 °C
CC1(C)Oc2cc(C#N)sc2[C@@H](N2CCCCC2=O)[C@@H]1OCc1ccccc1 (relative stereo)	174 to 178 °C
COc1cc(F)cc(-c2nn(Cc3oc4ccccc4c(=O)c3-c3cccc(F)c3)c3ncnc(N)c23)c1	115 to 117 °C
CC(C#N)(C(=O)NC1CCCCC1)c1ccccc1 (stereo not given)	76 to 78 °C

Using known records, supply melting point for Cc1c(F)c(N2CCN(C)CC2)c(C)c2c1c(=O)c(C(=O)O)cn2C1CC1
205 to 206 °C

Using known records, supply melting point for Cn1cnc(C=CC(=O)NC2CCNC(=O)C2)c1 (stereo not given)
280 to 282 °C

Using known records, supply melting point for CCc1cc2c(O)cc(=O)oc2cc1OC
174 to 175 °C

Using known records, supply melting point for O=C(c1ccc(-c2ccnnc2)cc1)N1CCN(S(=O)(=O)c2cc3cc(Cl)ccc3[nH]2)CC1
170 to 172 °C

Using known records, supply melting point for COc1ccc(CCc2ccc(NC=O)cc2)cc1OC
128 to 130 °C

Using known records, supply melting point for c1csc(-c2ccc(C34CCN(CC3)C4)cn2)n1
127 to 129 °C

Using known records, supply melting point for CCc1nc(N)nc(N)c1N1CCN(Cc2ccccc2)CC1
174 to 175 °C

Using known records, supply melting point for CC(=O)Oc1c(C(C)(C)C)cc(N(C)c2ccn(-c3ccccc3)n2)cc1C(C)(C)C
102 to 103 °C

Using known records, supply melting point for CCOc1ccc(CNC(=O)n2cc(F)c(=O)[nH]c2=O)cc1OC
153 °C

Using known records, supply melting point for N=C(c1ccccc1)c1ccccc1N
48 °C

Using known records, supply melting point for CCCCOC1OC(CO)C(O)C(O)C1(O)N(CC)C(=O)N(CCCl)N=O (stereo not given)
87 to 89 °C

Using known records, supply melting point for Oc1ccc(I)c(-c2cc(O)ccc2I)c1
181 to 182 °C

Using known records, supply melting point for C[C@H](Nc1nc(C(N)=O)nc(Cl)c1-c1c(F)cc(F)cc1F)C(F)(F)F
157 to 162 °C

Using known records, supply melting point for COc1ccc(-n2nc(OC(C)C)cc2-c2ccc(OCCNS(C)(=O)=O)cc2)cn1
121 to 122 °C

Using known records, supply melting point for CCN(CC)c1nc(Nc2ccc3cc(-c4ccccc4)c(=O)oc3c2)nc(N2CCCC(CO)C2)n1 (stereo not given)
182 to 183 °C

Cited source for all entries: a melting point compilation (Tetko et al.; mined from patent text by program, amines drawn as free bases though some values may be those of a salt)
